biological target: Bcl-xL, Q07817; experiment: peptide SPOT array, c-Myc-tagged receptor at 1 uM or 100 nM, anti-c-Myc-Cy3
Sequence (Q07817 1-209): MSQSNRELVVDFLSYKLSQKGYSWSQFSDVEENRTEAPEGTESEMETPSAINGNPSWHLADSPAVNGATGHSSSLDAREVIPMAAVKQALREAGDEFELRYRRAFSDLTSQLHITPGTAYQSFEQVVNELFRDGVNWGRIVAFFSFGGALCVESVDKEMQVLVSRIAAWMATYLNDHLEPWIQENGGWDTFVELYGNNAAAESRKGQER
param class (str): category from SPOT signal as a fraction of Bim BH3's signal on the same receptor and array; see ranges label 0 = under 0.03, label 1 = from 0.03 up to 0.07, label 2 = 0.07 and over

binder	class assignment
RLRQLGVAKKFGVLSDNFKGKRIVLV [PPAT]	label 2
AICIEEIGVWMKMYLDAFLNDSYLKY [STAG1]	label 0
MQTLSELAKSFQDMADRCLLVLHLEV [EXOC4]	label 1
TFETQEDAQKILQEAEKLNYKDKKLN [BOLL]	label 0
NKSLTTLGLVISSLADQAAGKGKSKF [KIF13A]	label 2
KYDPSKYCHNLKKILEDFSNTIPISS [NOL8]	label 2
AGDVEGFCSSIHDTSVSAGFRALYEE [KLHL15]	label 0
TSQTEGLSRLLRQHAEDLNSGPLSKL [FES]	label 1
DEHISYVATKVCHLGDQLEGVNTPRQ [EXOC5]	label 0
MEMYQPSAVVLQCGLDSLSGDRLGCF [HDAC2]	label 1
LNAVNYISTVDADWADNVFFLQLQQA [RINT1]	label 0
AALFLHAGCQDLTAGEDGKVQVWSGS [TEP1]	label 0
ISSLDLLPYGLRYILKVLKNSIHEKF [IQGAP2]	label 2
GENIRQAASSLQQASLKLFEMAYKKM [HSPA9]	label 2
NRKGEKNGKGDRHFSMKVCEKVQRKG [TFDP1]	label 2
NKQLRKETESLRKIALEAQKKAKVKI [SCLT1]	label 2
LNLLMISVAFDRVIGDQLEKLCDSLL [SLC38A8]	label 1
NDDTPWIARTLDNLLDELTAILSAPA [GBP6]	label 1
TRELQELARKLQELADASENLLTENT [TXNDC11]	label 1
VILADPDGHEICFVLDEAFRELSKMD [GLOD4]	label 0
HCQLRSVSQEIHRLSESMAQVYRGST [TDRD6]	label 1
GHIYLGAVNRIYKLSSDLKVLVTHET [PLXNA4]	label 2
